# maps each entry to its ADCC cytotoxic activity (51Cr release) on NCI-H2452
Molecular target: T1, CAPRIN-1 protein expressed on the membrane surface of human cancer cells (human, UniProt Q14444 2-709)
T1 sequence (looked up): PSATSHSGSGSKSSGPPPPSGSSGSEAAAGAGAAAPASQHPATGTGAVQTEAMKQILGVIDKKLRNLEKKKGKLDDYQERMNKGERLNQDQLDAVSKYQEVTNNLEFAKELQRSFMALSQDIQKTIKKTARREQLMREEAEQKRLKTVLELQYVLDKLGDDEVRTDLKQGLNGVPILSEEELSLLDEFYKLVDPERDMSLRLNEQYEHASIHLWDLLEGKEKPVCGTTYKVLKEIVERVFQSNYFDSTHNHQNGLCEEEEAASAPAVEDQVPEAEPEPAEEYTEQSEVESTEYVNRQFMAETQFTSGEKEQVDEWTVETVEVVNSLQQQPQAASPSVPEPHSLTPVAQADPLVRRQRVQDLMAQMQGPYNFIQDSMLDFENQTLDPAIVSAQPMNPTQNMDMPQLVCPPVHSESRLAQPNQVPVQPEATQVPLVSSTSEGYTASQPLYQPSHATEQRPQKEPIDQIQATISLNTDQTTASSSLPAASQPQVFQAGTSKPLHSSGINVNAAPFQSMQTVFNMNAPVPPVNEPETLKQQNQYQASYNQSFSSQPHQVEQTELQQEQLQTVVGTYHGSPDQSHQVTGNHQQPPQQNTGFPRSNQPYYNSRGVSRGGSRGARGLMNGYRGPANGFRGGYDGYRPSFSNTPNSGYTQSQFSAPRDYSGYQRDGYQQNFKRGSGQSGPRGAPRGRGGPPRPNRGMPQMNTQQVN
Experiment: cell-based or functional assay

Please review the entries below; each comes with its answer.
INSERT INTO results (binder, value) VALUES
  ('humanized antibody #6 (antibody, V domains shown) VH: EVQLVESGGGLVQPGGSLRLSCAASGFSLSSHSLGWVRQAPGKGLEWIGDIRSGGSAYYANWAKGRFTISRDNSKNTLYLQMNSLRAEDTAVYFCTRTNGPSDLTNRLDLWGQGTLVTVSS VL: QVLTQSPSSLSASVGDRVTINCQASQSLYNNENLAWFQQKPGKVPKRLIYGASTLASGVSSRFSGSGSGTEFTLTISSLQCEDFAIYYCLGEFSCGSADCFAFGGGTKVEIK', '≥ 35%'),
  ('humanized antibody #5 (antibody, V domains shown) VH: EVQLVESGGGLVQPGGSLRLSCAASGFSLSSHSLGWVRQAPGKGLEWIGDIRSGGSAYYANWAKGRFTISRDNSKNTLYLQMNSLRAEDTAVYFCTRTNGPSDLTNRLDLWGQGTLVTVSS VL: EQVLTQSPSSLSASVGDRVTINCQASQSLYNNENLAWFQQKPGKVPKRLIYGASTLASGVSSRFSGSGSGTEFTLTISNLQPEDFAIYYCLGEFSCGSADCFAFGGGTKVEIK', '≥ 39%'),
  ('humanized antibody #0 (antibody, V domains shown) VH: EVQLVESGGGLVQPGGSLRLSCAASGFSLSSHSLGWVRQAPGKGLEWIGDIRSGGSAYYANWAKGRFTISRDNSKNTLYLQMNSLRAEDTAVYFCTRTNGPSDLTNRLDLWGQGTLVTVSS VL: AIQMTQSPSSLSASVGDRVTINCQASQSLYNNENLAWFQQKPGKAPKRLIYGASTLASGVSSRFSGSGSGTDFTLTISSLQPEDFAIYYCLGEFSCGSADCFAFGGGTKVEIK', '≥ 31%'),
  ('human-rabbit chimeric anti-CAPRIN-1 antibody (antibody, V domains shown) VH: QSLEESGGRLVTPGTPLTLTCTASGFSLSSHSLGWVRQAPGKGLEWIGDIRSGGSAYYANWAKGRFTISRTSTTVALKMTSLTTEDTATYFCTRTNGPSDLTNRLDLWGQGTLVTVSS VL: QVLTQTPSSVSAAVGGTVTINCQASQSLYNNENLAWFQQKPGQPPKRLIYGASTLASGVSSRFKGSGSGTQFTLTIGDVQCDDAAIYYCLGEFSCGSADCFAFGGGTEVVVK', '≥ 31%');

Now take the following binder into account.
Item: humanized antibody #8 (antibody, V domains shown) VH: QSLVESGGGLVQPGGSLRLSCAASGFSLSSHSLGWVRQAPGKGLEWIGDIRSGGSAYYANWAKGRFTISRTSSKNTVYLQMNSLRAEDTAVYFCTRTNGPSDLTNRLDLWGQGTLVTVSS VL: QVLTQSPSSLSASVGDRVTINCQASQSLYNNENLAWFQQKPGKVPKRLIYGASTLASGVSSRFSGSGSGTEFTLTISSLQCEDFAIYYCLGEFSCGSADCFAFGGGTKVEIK | ADCC cytotoxic activity (51Cr release) on NCI-H2452: ≥ 31%
